experiment: FRG1 expression reporter modulators in myotubes – cell-based, C2C12 myotubes, firefly/Renilla luciferase, luminescence, FRG1 inhibition for FSHD, primary screen (AID 1084); details: FRG1 promoter luciferase, higher = more signal, called active from +8 up or from −8 down
Measurement kind: z-score

>>> recorded_value("CCCN1C(=O)[C@@]2(Cc3ccccc31)N=C(c1ccc(OCCCO)cc1)O[C@H]2c1ccccc1")
-1.35
>>> recorded_value("COCCOC(=O)N1C(=O)[C@@]2(c3cc(C#CCCO)ccc31)[C@H](C(=O)Nc1nc3ccccc3s1)[C@H]1C(=O)O[C@H](c3ccccc3)[C@H](c3ccccc3)N1[C@@H]2c1ccc(O)cc1")
-0.948
>>> recorded_value("CCCCCN1CC=CC23O[C@@H]4C=CCCOC(=O)C4[C@H]2C(=O)N(CCCCCCO)[C@@H]3C1=O (stereo not given in full)")
-0.457
>>> recorded_value("C=CCN1C(=O)[C@]2(CCC(=O)OC(C)(C)C)N=C(c3ccc(OCCCO)cc3)O[C@@H]2c2ccccc21")
-2.29
>>> recorded_value("COC(=O)[C@@]1(Cc2ccc(OC)cc2)[C@H]2c3cc(C(=O)N4CCCC4)n(CCc4c[nH]c5ccc(OC)cc45)c3C[C@H]2CN1C(=O)c1ccccc1")
0.49
>>> recorded_value("CCCCC[C@H]1OC[C@@]23C=C(Br)[C@@H](CC12)[C@@]1(CO1)C3=O (stereo not given in full)")
0.201
>>> recorded_value("C=CCNC(=O)[C@@H]1[C@H]2C(=O)O[C@H](c3ccccc3)[C@H](c3ccccc3)N2[C@H](c2ccc(OCCO)cc2)[C@@]12C(=O)N(C(=O)OCCOC)c1ccc(C#Cc3ccc(OC)cc3)cc12")
-0.309
>>> recorded_value("CCCCN1CC=CC23O[C@@H]4/C=C\\CCC(C)OC(=O)C4[C@H]2C(=O)N(CCCO)[C@@H]3C1=O (stereo not given in full)")
-0.313
>>> recorded_value("CC(C)C(CO)N1C(=O)[C@@H]2C3C(=O)OCCC/C=C\\[C@H]3OC23C=CCN(c2ccc4ccccc4c2)C(=O)[C@@H]13 (stereo not given in full)")
0.759
>>> recorded_value("C=C[C@H]1C(C(=O)OCC)=CC[C@@H](c2ccccc2)N1S(=O)(=O)c1ccc(C)cc1")
-3.11
>>> recorded_value("CC(C)C(CO)N1C(=O)[C@@H]2C3C(=O)OCCC/C=C\\[C@H]3OC23C=CCN(Cn2nnc4ccccc42)C(=O)[C@@H]13 (stereo not given in full)")
0.0182
>>> recorded_value("CCCCCCCCCCC(O)C1C=CC2C(=O)N(c3ccccc3)C(=O)C2N1Nc1ccc(C#N)cc1 (stereo not given)")
1.05
>>> recorded_value("C=CCC(OC(C)=O)[C@@H]1[C@@H](N(Cc2ccc(-c3cccc(C(F)(F)F)c3)o2)C(=O)c2ccc(-c3ccccc3)cc2)c2cc(OCCCO)ccc2N1C(=O)Cc1ccc2ccccc2c1 (stereo not given in full)")
-0.0069
>>> recorded_value("CCCCCCCCCC(O)C1C=CC2C(=O)N(c3ccccc3)C(=O)C2N1Nc1cc(OC)c(OC)c(OC)c1 (stereo not given)")
0.393
>>> recorded_value("C=C[C@H](C)[C@H](OC(=O)Nc1ccc(SC)cc1)c1ccc(OCCO)cc1")
4.38
